- Tested on: HepG2 cells
- ASSAY_INFO: Measurement of cholesterol synthesis inhibitory ability
- Format: cell-based
- REPORTED_CONDITIONS: 100 μM compound, 24 hours, HepG2 cells; content of cholesterol formed; lower value = stronger inhibition
Where Cholesterol (100 μM) aver. equals or exceeds 60, the correct label is TRUE; where it does not, the label is FALSE.

Consider the worked cases shown below.
                                   molecule    cat
0  Cl.N=C(N)NC(=Nc1ccccc1)NCc1ccc2c(c1)OCO2 [Example 45]   TRUE
1  Cl.N=C(NCc1ccc2c(c1)OCO2)NC(=N)NCC1CC1 [Example 21]  FALSE
2  Cl.N=C(N)NC(=Nc1ccc(Br)cc1)NCc1ccc2c(c1)OCO2 [Example 32]  FALSE
3  COc1cc(N=C(NCc2ccc3c(c2)OCO3)NC(=N)N)cc(OC)c1OC.Cl [Example 24]   TRUE
4  CC(C)(C)CC(C)(C)N=C(NCc1ccc2c(c1)OCO2)NC(=N)N.Cl [Example 9]  FALSE
5  CCCCN=C(NCc1ccc2c(c1)OCO2)NC(=N)N.Cl [Example 39]   TRUE

Please indicate if the recorded Cholesterol (100 μM) aver. for Cl.N=C(N)NC(=Nc1cccc(Br)c1)NCc1ccc2c(c1)OCO2 [Example 41] meets or exceeds 60.
FALSE

Is it the case that Cl.N=C(N)NC(=NCc1ccc(F)cc1)NCc1ccc2c(c1)OCO2 [Example 43] has Cholesterol (100 μM) aver. reaching or exceeding 60?
TRUE
